subjectOfTest: UniProt P42336
protocol: PI3K-alpha fluorescence polarization assay
Type: biochemical
conditionsUsed: read-out: PI3Kα Avg. IC50
Please respond with reported IC50 for every item in the list.
One number for each entry, in nM.

COc1ccc2c(c1)c(/C=C1\Oc3cc(O)cc(O)c3C1=O)c(C)n2CCn1ccnc1 | 6
CNC(=O)Nc1ccc2c(c1)C(=O)/C(=C/c1c(CN(C)CCN(C)C)[nH]c3ccc(OC)cc13)O2 | 12.5
COc1ccc2c(c1)c(C=C1Oc3cc(O)cc(O)c3C1=O)c(C)n2CCN(C)C | 9.3
COc1ccc2c(c1)c(/C=C1\Oc3cc(O)ccc3C1=O)c(C(=O)N(C)C)n2CCCN(C)C | 24
COc1ccc2c(c1)c(/C=C1\Oc3cc(O)ccc3C1=O)cn2CCCC#N | 21
COc1ccc(-c2cccc3[nH]cc(/C=C4\Oc5cc(O)cc(O)c5C4=O)c23)cc1 | 1010

Below is a list of compounds. For each, state its recorded IC50.
1. CCn1c(C)c(/C=C2\Oc3ccc(NC(=O)Nc4ccc(N(C)C)cc4)cc3C2=O)c2cc(OC)ccc21
2. CNC(=O)c1cc(O)cc2c1C(=O)/C(=C/c1c[nH]c3ccc(OC)cc13)O2
3. N#CCCCn1cc(C=C2Oc3cc(O)cc(O)c3C2=O)c2ccccc21
4. COc1ccc2c(c1)c(/C=C1\Oc3ccc(NC(C)=O)cc3C1=O)cn2CCCN(C)C

stdout:
1: 11.5; 2: 1540; 3: 4710; 4: 1270

Below is a list of compounds. For each, state its recorded IC50.
1. Cn1cc(C=C2Oc3cc(O)cc(O)c3C2=O)c2c(Cl)cccc21
2. COc1cc(-c2cccnc2)c2c(c1)c(/C=C1\Oc3cc(O)ccc3C1=O)cn2CCCC#N
3. CNC(=O)Nc1ccc2c(c1)C(=O)/C(=C/c1c(-c3c(C)nn(C)c3C)[nH]c3c(OC)c(F)c(OC)cc13)O2
4. CCc1cc(OC)cc2c(/C=C3\Oc4cc(O)ccc4C3=O)cn(CCN3CCN(C)CC3)c12
5. COc1ccc2[nH]c(-c3c(C)nn(C)c3C)c(/C=C3\Oc4ccc(NC(=O)Nc5ccc(C(=O)N(C)CCN(C)C)cc5)cc4C3=O)c2c1

stdout:
555
592
23
162
0.3

====

subjectOfTest: PI3K-alpha (Homo sapiens)
Sequence (P42336 whole entry, species assumed): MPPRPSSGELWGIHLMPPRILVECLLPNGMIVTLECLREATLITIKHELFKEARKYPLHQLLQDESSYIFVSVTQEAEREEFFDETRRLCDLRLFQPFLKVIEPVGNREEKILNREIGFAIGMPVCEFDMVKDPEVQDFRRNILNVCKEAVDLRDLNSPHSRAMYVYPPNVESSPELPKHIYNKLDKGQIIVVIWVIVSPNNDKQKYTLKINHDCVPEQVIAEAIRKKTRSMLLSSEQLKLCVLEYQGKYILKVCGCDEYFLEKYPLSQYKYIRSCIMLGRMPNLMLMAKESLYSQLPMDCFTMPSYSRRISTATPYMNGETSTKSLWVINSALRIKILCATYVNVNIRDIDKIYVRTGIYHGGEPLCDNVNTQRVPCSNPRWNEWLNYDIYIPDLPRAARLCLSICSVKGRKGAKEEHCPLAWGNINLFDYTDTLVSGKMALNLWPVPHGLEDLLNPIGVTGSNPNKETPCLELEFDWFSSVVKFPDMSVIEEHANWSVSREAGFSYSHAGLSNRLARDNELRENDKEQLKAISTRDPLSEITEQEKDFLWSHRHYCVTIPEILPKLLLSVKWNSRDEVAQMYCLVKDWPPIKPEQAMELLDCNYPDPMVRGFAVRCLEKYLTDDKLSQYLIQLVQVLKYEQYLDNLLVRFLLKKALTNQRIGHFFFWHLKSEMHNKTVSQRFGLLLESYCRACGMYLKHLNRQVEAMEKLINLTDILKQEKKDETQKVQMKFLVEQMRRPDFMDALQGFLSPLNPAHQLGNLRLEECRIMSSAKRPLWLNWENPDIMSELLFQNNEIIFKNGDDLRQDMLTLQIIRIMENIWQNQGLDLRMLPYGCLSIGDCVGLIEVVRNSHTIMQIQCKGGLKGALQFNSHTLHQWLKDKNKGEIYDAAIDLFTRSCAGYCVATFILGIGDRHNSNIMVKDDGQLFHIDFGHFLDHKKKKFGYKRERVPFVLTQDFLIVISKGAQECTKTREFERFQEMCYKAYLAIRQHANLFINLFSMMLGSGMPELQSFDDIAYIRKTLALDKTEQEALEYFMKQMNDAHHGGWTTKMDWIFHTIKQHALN
Sequence (P27986 whole entry partner, species assumed): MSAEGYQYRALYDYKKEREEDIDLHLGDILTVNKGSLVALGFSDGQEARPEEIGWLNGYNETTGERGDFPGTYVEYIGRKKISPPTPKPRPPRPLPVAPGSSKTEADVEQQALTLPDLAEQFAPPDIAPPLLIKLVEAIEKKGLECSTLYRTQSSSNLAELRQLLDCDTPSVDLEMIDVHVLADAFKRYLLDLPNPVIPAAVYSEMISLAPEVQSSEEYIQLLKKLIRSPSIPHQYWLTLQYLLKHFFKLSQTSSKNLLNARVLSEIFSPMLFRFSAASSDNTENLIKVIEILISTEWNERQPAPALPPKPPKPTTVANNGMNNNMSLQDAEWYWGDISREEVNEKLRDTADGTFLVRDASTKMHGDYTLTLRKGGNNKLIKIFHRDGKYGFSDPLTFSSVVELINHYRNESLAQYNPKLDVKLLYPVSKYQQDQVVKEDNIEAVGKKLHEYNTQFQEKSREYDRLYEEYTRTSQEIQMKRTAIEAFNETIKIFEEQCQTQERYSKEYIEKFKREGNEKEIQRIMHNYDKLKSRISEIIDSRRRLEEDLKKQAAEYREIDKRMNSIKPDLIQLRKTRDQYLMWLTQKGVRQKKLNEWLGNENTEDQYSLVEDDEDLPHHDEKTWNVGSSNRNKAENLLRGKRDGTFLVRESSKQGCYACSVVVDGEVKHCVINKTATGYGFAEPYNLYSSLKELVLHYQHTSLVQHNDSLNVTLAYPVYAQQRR
protocol: PI3K-alpha fluorescence polarization assay
Assay type: biochemical
conditionsUsed: read-out: PI3Kα Avg. IC50
hey, just use YES if measured IC50 is less than 700 nM, otherwise NO

Answered examples (4):
CCNC(=O)Nc1ccc2c(c1)C(=O)/C(=C/c1cn(CCCN(C)C)c3ccc(OC)cc13)O2 | YES
O=C1C(=Cc2c(-c3ccccc3)n(Cc3ccccc3)c3ccccc23)Oc2cc(O)cc(O)c21 | NO
CNc1ccc(-c2cccc3c2c(/C=C2\Oc4cc(O)cc(O)c4C2=O)cn3C)cc1 | NO
COc1ccc2[nH]cc(/C=C3\Oc4ccc(NC(=O)Nc5ccc(N(C)C)cc5)cc4C3=O)c2c1 | YES

stdin: Could you please tell me whether IC50 recorded for COc1ccc2c(c1)c(/C=C1\Oc3cc(O)ccc3C1=O)c(C1CC1)n2CCn1cccn1 is less than 700 nM?
stdout: YES

stdin: Item: COc1ccc2[nH]c(C(=O)O)c(/C=C3\Oc4cc(O)cc(O)c4C3=O)c2c1
stdout: YES

stdin: Item: CCn1c(C)c(/C=C2\Oc3ccc(NC(=O)Nc4ccc(S(=O)(=O)N(C)CCN(C)C)cc4)cc3C2=O)c2cc(OC)ccc21
stdout: YES

stdin: Item: COc1cccc2c1OC(=Cc1c[nH]c3ccccc13)C2=O
stdout: NO
